Data origin: patent US20170000749A1

# System under test: one or more of HDAC-1, HDAC-2, HDAC-3, HDAC-4, HDAC-5, HDAC-6, HDAC-7, HDAC-8, HDAC-9, HDAC-10 and HDAC-11
# Method description: Inhibition of Histone Deacetylase Enzymatic Activity (Boc-Lys(Ac)-AMC substrate, Fluor-de-Lys developer)
# Assay type: biochemical
# Condition parameters: Table 9; read-out: HDAC Inhibition (IC50 μM) HDAC Enzyme
# Description: The following protocol is used to assay the compounds of the disclosure. The mixture is pre-incubated for 5 minutes at room temperature. The reaction is started by bringing the temperature to 37° C. and adding 16 μl substrate. Total reaction volume is 50 μl. In the Tables 8, 9 and 10, A≦0.05 μM; 0.05 μM<B≦0.1 μM; 0.1 μM<C≦1 μM; and 1 μM<D≦10 μM.
Metric name: IC50

>>> observed_measurement("O=C(NO)c1cnc(N2C[C@@H]3C[C@H]2CN3c2ccc(F)cc2)nc1")
"0.05 to 0.1 µM"
>>> observed_measurement("COc1cccc(N2C[C@@H]3C[C@H]2CN3c2ncc(C(=O)NO)cn2)c1")
"< 0.05 µM"
>>> observed_measurement("O=C(NO)c1cnc(N2C[C@@H]3C[C@H]2CN3C(=O)OCc2cccnc2)nc1")
"< 0.05 µM"
>>> observed_measurement("O=C(NO)c1ccc(N2C[C@@H]3C[C@H]2CN3c2cccc(C(F)(F)F)c2)cc1F")
"0.1 to 1 µM"
>>> observed_measurement("O=C(NO)c1cnc(N2C[C@@H]3C[C@H]2CN3C(c2ccccc2)c2ccccc2)nc1")
"< 0.05 µM"
>>> observed_measurement("O=C(NO)c1cnc(N2CC3CC(CN(c4cc(C(F)(F)F)ccn4)C3)C2)nc1")
"0.1 to 1 µM"
>>> observed_measurement("O=C(NO)c1cnc(N2C[C@@H]3C[C@H]2CN3c2ccc(C(F)(F)F)cc2F)nc1")
"< 0.05 µM"
>>> observed_measurement("O=C(NO)c1cnc(N2C[C@@H]3C[C@H]2CN3C(=O)OCC2CC2)nc1")
"< 0.05 µM"
>>> observed_measurement("O=C(NO)c1cnc(N2C[C@@H]3C[C@H]2CN3c2cccc(OC(F)(F)F)c2)nc1")
"< 0.05 µM"
>>> observed_measurement("O=C(NO)c1cnc(N2C[C@H]3C[C@@H]2CN3c2cc(C(F)(F)F)ccn2)nc1")
"< 0.05 µM"

====

The molecules listed here are annotated with their IC50.
# System: HDAC activity in primary mouse cortical cultures
# Method description: Whole-Cell Histone Deacetylase (HDAC) Inhibition Assay in Primary Mouse Cortical Cultures
# Format: cell-based
# Condition parameters: whole-cell (WC), mouse cortical neurons; Table 9; read-out: HDAC Inhibition (IC50 μM) WC mouse cortical neurons
Metric name: IC50

>>> observed_measurement("O=C(NO)c1cnc(N2C[C@@H]3C[C@H]2CN3c2ccc(F)cc2)nc1")
"< 1 µM"
>>> observed_measurement("O=C(NO)c1cnc(N2C[C@@H]3C[C@H]2CN3C(=O)C2CCCCC2)nc1")
"1 to 5 µM"
>>> observed_measurement("O=C(NO)c1cnc(N2C[C@@H]3C[C@H]2CN3c2ccc3c(c2)OCO3)nc1")
"< 1 µM"
>>> observed_measurement("O=C(NO)c1cnc(N2C[C@@H]3C[C@H]2CN3c2cccc(OC(F)(F)F)c2)nc1")
"< 1 µM"
>>> observed_measurement("O=C(NO)c1cnc(N2C[C@H]3C[C@@H]2CN3c2cc(C(F)(F)F)ccn2)nc1")
"< 1 µM"
>>> observed_measurement("N#Cc1cccc(N2C[C@@H]3C[C@H]2CN3c2ccc(C(=O)NO)cc2)c1")
"1 to 5 µM"
>>> observed_measurement("O=C(NO)c1ccc(N2C[C@@H]3C[C@H]2CN3c2cc(C(F)(F)F)ccn2)cc1")
"1 to 5 µM"
>>> observed_measurement("O=C(NO)c1cnc(N2C[C@@H]3C[C@H]2CN3c2nccc(C(F)(F)F)n2)nc1")
"< 1 µM"
>>> observed_measurement("O=C(NO)c1cnc(N2C[C@@H]3C[C@H]2CN3C(=O)OCC2CC2)nc1")
"< 1 µM"
>>> observed_measurement("O=C(NO)c1cnc(N2C[C@@H]3C[C@H]2CN3c2cccc(S(F)(F)(F)(F)F)c2)nc1")
"1 to 5 µM"
>>> observed_measurement("O=C(NO)c1cnc(N2C[C@@H]3C[C@H]2CN3C(=O)N2CCCC2)nc1")
"< 1 µM"
>>> observed_measurement("O=C(NO)c1cnc(N2C[C@@H]3C[C@H]2CN3c2ccccc2)nc1")
"< 1 µM"
>>> observed_measurement("O=C(NO)c1cnc(N2C[C@@H]3C[C@H]2CN3C(=O)OCc2cccnc2)nc1")
"< 1 µM"
>>> observed_measurement("CN(C)Cc1cccc(N2C[C@@H]3C[C@H]2CN3c2ncc(C(=O)NO)cn2)c1")
"< 1 µM"
>>> observed_measurement("O=C(NO)c1cnc(N2C[C@@H]3C[C@H]2CN3c2noc3ccccc23)nc1")
"< 1 µM"
>>> observed_measurement("O=C(NO)c1cnc(N2C[C@@H]3C[C@H]2CN3c2cccc(C(F)(F)F)c2)cn1")
"5 to 15 µM"
>>> observed_measurement("O=C(NO)c1cnc(N2C[C@@H]3C[C@H]2CN3c2cncc(C(F)(F)F)c2)nc1")
"< 1 µM"
>>> observed_measurement("O=C(NO)c1cnc(N2C[C@@H]3C[C@H]2CN3c2cccc3nonc23)nc1")
"< 1 µM"
>>> observed_measurement("O=C(NO)c1cnc(N2C[C@@H]3C[C@H]2CN3c2cccc(C(F)(F)F)c2)nc1")
"< 1 µM"
>>> observed_measurement("O=C(NO)c1cnc(N2C[C@@H]3C[C@H]2CN3c2ccc3nonc3c2)nc1")
"< 1 µM"
>>> observed_measurement("CC(C)OC(=O)N1C[C@@H]2C[C@H]1CN2c1ncc(C(=O)NO)cn1")
"< 1 µM"
